Listed compounds paired with reported pKi
- Target entity: Aurora B (Homo sapiens, UniProt Q96GD4)
- Construct: Active Aurora B enzyme (recombinant residues 1-344)
- Sequence (Q96GD4 whole entry, the tested form may be a part): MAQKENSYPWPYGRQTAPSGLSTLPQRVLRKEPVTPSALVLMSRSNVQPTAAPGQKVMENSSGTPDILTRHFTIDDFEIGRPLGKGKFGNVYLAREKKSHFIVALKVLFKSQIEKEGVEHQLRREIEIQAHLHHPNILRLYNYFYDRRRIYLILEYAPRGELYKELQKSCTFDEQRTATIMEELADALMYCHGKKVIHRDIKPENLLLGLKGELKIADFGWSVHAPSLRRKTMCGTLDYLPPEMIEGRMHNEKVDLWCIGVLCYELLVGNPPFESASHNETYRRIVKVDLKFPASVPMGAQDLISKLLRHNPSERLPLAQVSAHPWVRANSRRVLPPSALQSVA
- Sequence (Q9NQS7 826-918 partner limits assumed): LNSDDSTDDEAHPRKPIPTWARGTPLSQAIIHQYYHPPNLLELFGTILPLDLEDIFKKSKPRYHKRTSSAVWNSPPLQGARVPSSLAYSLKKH
- Assay comment: Aurora B enzyme inhibition (time-resolved fluorescence, histone H3 peptide)
- Condition description: 1 mM ATP
- Method: To determine Aurora B activity of representative compounds of the invention, Active Aurora B enzyme (recombinant residues 1-344) and INCENP (recombinant GST fusion protein (Upstate)) were incubated in wells of a 384 well plate with biotinylated histone H3 peptide residues 1-21 (Upstate), 1 mM ATP, and various concentrations of inhibitors in a HEPES buffer, pH 7.4 containing MgCl2, sodium othrovanadate, and Triton X-100. […]
pKi: −log10 of the molar value.

Compound: CNC(=O)[C@@H]1[C@H](Nc2nc(Nc3cnn(C)c3)ncc2Br)[C@H]2C=C[C@@H]1C2.CNC(=O)[C@H]1[C@@H](Nc2nc(Nc3cnn(C)c3)ncc2Br)[C@@H]2C=C[C@H]1C2 (mixture of isomers)
pKi: > 7.00
--
Compound: NC(=O)[C@@H]1[C@H](Nc2nc(Nc3cnn(C[C@H](O)CO)c3)ncc2Br)[C@H]2C=C[C@@H]1C2
pKi: > 7.00

Input line: Using the record for COCCOCCn1cc(Nc2ncc(Cl)c(N[C@H]3[C@@H](C(N)=O)[C@@H]4C=C[C@H]3C4)n2)cn1 , report its pKi.
Output line: > 7.00

###

Listed compounds paired with reported pKi
- Target entity: KDR (Homo sapiens, UniProt P35968)
- Sequence (P35968 789-1354): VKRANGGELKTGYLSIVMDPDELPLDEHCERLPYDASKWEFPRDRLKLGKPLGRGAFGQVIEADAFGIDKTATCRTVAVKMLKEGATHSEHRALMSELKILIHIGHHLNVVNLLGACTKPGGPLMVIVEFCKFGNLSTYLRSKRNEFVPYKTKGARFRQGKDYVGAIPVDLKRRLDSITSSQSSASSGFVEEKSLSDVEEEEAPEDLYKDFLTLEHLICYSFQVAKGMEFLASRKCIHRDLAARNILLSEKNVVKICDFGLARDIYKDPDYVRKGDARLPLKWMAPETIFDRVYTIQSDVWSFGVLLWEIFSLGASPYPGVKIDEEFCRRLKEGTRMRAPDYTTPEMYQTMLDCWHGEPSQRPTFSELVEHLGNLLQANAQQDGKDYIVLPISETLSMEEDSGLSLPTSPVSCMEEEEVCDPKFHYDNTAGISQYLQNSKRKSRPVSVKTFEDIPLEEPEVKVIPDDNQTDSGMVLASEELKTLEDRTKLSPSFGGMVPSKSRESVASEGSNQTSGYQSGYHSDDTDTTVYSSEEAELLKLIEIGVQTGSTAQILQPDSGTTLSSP
pKi: −log10 of the molar value.

// below: answered compounds
Compound: NC(=O)[C@@H]1[C@H](Nc2nc(Nc3cnn(-c4ccccc4)c3)ncc2Cl)[C@H]2C=C[C@@H]1C2
Target entity: KDR (Homo sapiens, UniProt P35968)
Observed measurement: > 7.00
//
Compound: OCCn1cc(Nc2ncc(Cl)c(Nc3ccc4[nH]ncc4c3)n2)cn1
Target entity: KDR (Homo sapiens, UniProt P35968)
Observed measurement: > 7.00
//
Compound: Cn1cc(Nc2ncc(Cl)c(N[C@@H]3[C@H](C(N)=O)[C@@H]4C=C[C@H]3C4)n2)cn1.Cn1cc(Nc2ncc(Cl)c(N[C@H]3[C@@H](C(N)=O)[C@H]4C=C[C@@H]3C4)n2)cn1 (mixture of isomers)
Target entity: KDR (Homo sapiens, UniProt P35968)
Observed measurement: > 7.00

Input line: Using the record for CNC(=O)[C@@H]1[C@H](Nc2nc(Nc3cnn(C)c3)ncc2F)[C@H]2C=C[C@@H]1C2.CNC(=O)[C@H]1[C@@H](Nc2nc(Nc3cnn(C)c3)ncc2F)[C@@H]2C=C[C@H]1C2 (mixture of isomers) , report its pKi.
Output line: < 5.30

Input line: Using the record for CNC(=O)Cn1cc(Nc2ncc(Cl)c(N[C@@H]3[C@H]4CC[C@H](C4)[C@@H]3C(N)=O)n2)cn1 , report its pKi.
Output line: > 7.00

Input line: Using the record for CC(C)CCn1cc(Nc2ncc(Cl)c(N[C@H]3[C@@H](C(N)=O)[C@@H]4C=C[C@H]3C4)n2)cn1 , report its pKi.
Output line: > 7.00

###

Listed compounds paired with reported Ki
- Target entity: Aurora B (Homo sapiens, UniProt Q96GD4)
- Construct: Active Aurora B enzyme (recombinant residues 1-344)
- Assay comment: Aurora B enzyme inhibition (time-resolved fluorescence, histone H3 peptide)
- Condition description: 1 mM ATP

// below: answered compounds
Compound: Cn1cc(Nc2ncc(C(F)(F)F)c(N[C@@H]3C[C@H]4CC[C@@H]3C4)n2)cn1.Cn1cc(Nc2ncc(C(F)(F)F)c(N[C@H]3C[C@@H]4CC[C@H]3C4)n2)cn1 (mixture of isomers)
Measured parameter: Ki
Observed measurement: < 100 nM

Compound: NC(=O)Cn1cc(Nc2ncc(Br)c(N[C@H]3[C@@H](C(N)=O)[C@@H]4C=C[C@H]3C4)n2)cn1
Measured parameter: Ki
Observed measurement: < 100 nM

Compound: Cc1c(Nc2ncc(Cl)c(N[C@H]3[C@@H](C(N)=O)[C@@H]4C=C[C@H]3C4)n2)cnn1C
Measured parameter: Ki
Observed measurement: < 100 nM

Compound: Cn1cc(Nc2ncc(F)c(N[C@@H]3CCC[C@@H]3C(N)=O)n2)cn1.Cn1cc(Nc2ncc(F)c(N[C@H]3CCC[C@H]3C(N)=O)n2)cn1 (mixture of isomers)
Measured parameter: Ki
Observed measurement: 100 to 1000 nM

Compound: NC(=O)[C@@H]1[C@H](Nc2nc(Nc3cnn(Cc4ccc(Cl)cc4)c3)ncc2Cl)[C@H]2C=C[C@@H]1C2
Measured parameter: Ki
Observed measurement: < 100 nM

Note: attention shifts to another entry.
Input line: Using the record for Cc1nn(C)c(C)c1Nc1ncc(Cl)c(N[C@H]2[C@@H](C(N)=O)[C@@H]3C=C[C@H]2C3)n1 , report its Ki.
Output line: 100 to 1000 nM

###

- Target entity: Aurora B (Homo sapiens, UniProt Q96GD4)
- Construct: Active Aurora B enzyme (recombinant residues 1-344)
- Assay comment: Aurora B enzyme inhibition (time-resolved fluorescence, histone H3 peptide)
- Condition description: 1 mM ATP
pKi: −log10 of the molar value.
Measured parameter: pKi

// below: answered compounds
Compound: NC(=O)[C@@H]1[C@H](Nc2nc(Nc3cnn(CCN4CCOCC4)c3)ncc2Br)[C@H]2C=C[C@@H]1C2.NC(=O)[C@H]1[C@@H](Nc2nc(Nc3cnn(CCN4CCOCC4)c3)ncc2Br)[C@@H]2C=C[C@H]1C2 (mixture of isomers) [Example 39]
Target entity: Aurora B (Homo sapiens, UniProt Q96GD4)
Observed measurement: > 7.00

Compound: NC(=O)[C@@H]1[C@H](Nc2nc(Nc3cnn(CCO)c3)ncc2C(F)(F)F)[C@H]2C=C[C@@H]1C2.NC(=O)[C@H]1[C@@H](Nc2nc(Nc3cnn(CCO)c3)ncc2C(F)(F)F)[C@@H]2C=C[C@H]1C2 (mixture of isomers) [Example 29]
Target entity: Aurora B (Homo sapiens, UniProt Q96GD4)
Observed measurement: 6.00 to 7.00

Compound: NC(=O)[C@@H]1[C@H](Nc2nc(Nc3cnn([C@@H]4CCNC4)c3)ncc2Cl)[C@H]2C=C[C@@H]1C2 [Example 73]
Target entity: Aurora B (Homo sapiens, UniProt Q96GD4)
Observed measurement: > 7.00

Compound: NC(=O)[C@@H]1[C@H](Nc2nc(Nc3cnn(C4CCNCC4)c3)ncc2Cl)[C@H]2C=C[C@@H]1C2 [Example 82]
Target entity: Aurora B (Homo sapiens, UniProt Q96GD4)
Observed measurement: > 7.00

Compound: Cn1cc(Nc2ncc(Cl)c(N[C@@H]3CCC[C@@H]3C(N)=O)n2)cn1.Cn1cc(Nc2ncc(Cl)c(N[C@H]3CCC[C@H]3C(N)=O)n2)cn1 (mixture of isomers) [Example 43]
Target entity: Aurora B (Homo sapiens, UniProt Q96GD4)
Observed measurement: > 7.00

Note: attention shifts to another entry.
Input line: Using the record for CCn1cc(Nc2ncc(C(F)(F)F)c(N[C@H]3[C@@H](C(N)=O)[C@@H]4C=C[C@H]3C4)n2)cn1 [Example 62] , report its pKi.
Output line: > 7.00

###

Sequence of the target: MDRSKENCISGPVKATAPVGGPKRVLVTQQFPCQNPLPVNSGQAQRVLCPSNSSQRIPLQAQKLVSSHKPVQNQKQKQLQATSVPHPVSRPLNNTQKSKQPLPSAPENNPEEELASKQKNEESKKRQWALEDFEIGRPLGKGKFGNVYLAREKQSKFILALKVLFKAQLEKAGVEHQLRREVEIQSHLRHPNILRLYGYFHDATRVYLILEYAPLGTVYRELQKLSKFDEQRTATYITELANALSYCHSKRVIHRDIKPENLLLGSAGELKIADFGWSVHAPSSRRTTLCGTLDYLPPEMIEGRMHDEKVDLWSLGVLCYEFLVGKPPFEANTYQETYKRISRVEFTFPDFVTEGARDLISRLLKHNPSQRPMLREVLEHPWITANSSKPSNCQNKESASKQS
Measured parameter: Ki

Compound: CCn1cc(Nc2ncc(C(F)(F)F)c(N[C@@H]3[C@H](C(N)=O)[C@H]4C=C[C@@H]3C4)n2)cn1.CCn1cc(Nc2ncc(C(F)(F)F)c(N[C@H]3[C@@H](C(N)=O)[C@@H]4C=C[C@H]3C4)n2)cn1 (mixture of isomers)
Ki: < 100 nM

Note: attention shifts to another entry.
Input line: Using the record for Cn1cc(Nc2ncc(C(F)(F)F)c(N[C@@H]3CC=CC[C@@H]3C(N)=O)n2)cn1.Cn1cc(Nc2ncc(C(F)(F)F)c(N[C@H]3CC=CC[C@H]3C(N)=O)n2)cn1 (mixture of isomers) , report its Ki.
Output line: 1000 to 5000 nM

###

Reported pKi values, KDR (Homo sapiens, UniProt P35968).
pKi: −log10 of the molar value.

// below: answered molecules
Molecule: NC(=O)[C@@H]1[C@H](Nc2nc(Nc3cnn([C@H]4CCCNC4)c3)ncc2Cl)[C@H]2C=C[C@@H]1C2
Observed measurement: > 7.00
--
Molecule: NC(=O)[C@@H]1[C@H](Nc2nc(Nc3cnn(CCO)c3)ncc2Cl)[C@H]2C=C[C@@H]1C2
Observed measurement: > 7.00
--
Molecule: Cn1cc(Nc2ncc(C(F)(F)F)c(N[C@@H]3[C@H](C(=O)NCCO)[C@H]4C=C[C@@H]3C4)n2)cn1.Cn1cc(Nc2ncc(C(F)(F)F)c(N[C@H]3[C@@H](C(=O)NCCO)[C@@H]4C=C[C@H]3C4)n2)cn1 (mixture of isomers)
Observed measurement: > 7.00

Input line: Fill in the recorded pKi for this molecule, with KDR (Homo sapiens, UniProt P35968) as test system: CC(C)NC(=O)[C@H]1CCC[C@H]1Nc1nc(Nc2cnn(CCN3CCOCC3)c2)ncc1Cl
Output line: 6.00 to 7.00

Input line: Fill in the recorded pKi for this molecule, with KDR (Homo sapiens, UniProt P35968) as test system: Cn1cc(Nc2ncc(C(F)(F)F)c(N[C@@H]3[C@H](C(N)=O)[C@H]4C=C[C@@H]3C4)n2)cn1.Cn1cc(Nc2ncc(C(F)(F)F)c(N[C@H]3[C@@H](C(N)=O)[C@@H]4C=C[C@H]3C4)n2)cn1 (mixture of isomers)
Output line: > 7.00

Input line: Fill in the recorded pKi for this molecule, with KDR (Homo sapiens, UniProt P35968) as test system: CNC(=O)Cn1cc(Nc2ncc(Br)c(N[C@H]3[C@@H](C(N)=O)[C@@H]4C=C[C@H]3C4)n2)cn1
Output line: > 7.00

Input line: Fill in the recorded pKi for this molecule, with KDR (Homo sapiens, UniProt P35968) as test system: NC(=O)[C@@H]1[C@H](Nc2nc(Nc3cnn(CCN4CCCCC4)c3)ncc2Cl)[C@H]2C=C[C@@H]1C2.NC(=O)[C@H]1[C@@H](Nc2nc(Nc3cnn(CCN4CCCCC4)c3)ncc2Cl)[C@@H]2C=C[C@H]1C2 (mixture of isomers)
Output line: > 7.00

Input line: Fill in the recorded pKi for this molecule, with KDR (Homo sapiens, UniProt P35968) as test system: NC(=O)[C@@H]1[C@H](Nc2nc(Nc3cnn(CCc4cccc(Cl)c4)c3)ncc2Cl)[C@H]2C=C[C@@H]1C2
Output line: > 7.00

Input line: Fill in the recorded pKi for this molecule, with KDR (Homo sapiens, UniProt P35968) as test system: Cc1nc(Nc2cnn(C)c2)nc(N[C@@H]2[C@H](C(N)=O)[C@H]3C=C[C@@H]2C3)c1Cl.Cc1nc(Nc2cnn(C)c2)nc(N[C@H]2[C@@H](C(N)=O)[C@@H]3C=C[C@H]2C3)c1Cl (mixture of isomers)
Output line: 6.00 to 7.00

Input line: Fill in the recorded pKi for this molecule, with KDR (Homo sapiens, UniProt P35968) as test system: NC(=O)[C@@H]1[C@H](Nc2nc(Nc3cnn(CCO)c3)ncc2F)[C@H]2C=C[C@@H]1C2.NC(=O)[C@H]1[C@@H](Nc2nc(Nc3cnn(CCO)c3)ncc2F)[C@@H]2C=C[C@H]1C2 (mixture of isomers)
Output line: 6.00 to 7.00
